Measured Stimulation Index, FXa generation assay, 800 nM OA antibody by item
# assayed target: human plasma-derived Factor IXa (human, UniProt P00740 47-191; P00740 227-461)
# Sequence (P00740 47-191, chain 1 of 2): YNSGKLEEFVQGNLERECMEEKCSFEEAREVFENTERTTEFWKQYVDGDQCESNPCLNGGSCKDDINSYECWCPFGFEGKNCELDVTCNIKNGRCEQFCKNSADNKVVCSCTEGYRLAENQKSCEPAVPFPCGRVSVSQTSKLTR
# Sequence (P00740 227-461, chain 2 of 2): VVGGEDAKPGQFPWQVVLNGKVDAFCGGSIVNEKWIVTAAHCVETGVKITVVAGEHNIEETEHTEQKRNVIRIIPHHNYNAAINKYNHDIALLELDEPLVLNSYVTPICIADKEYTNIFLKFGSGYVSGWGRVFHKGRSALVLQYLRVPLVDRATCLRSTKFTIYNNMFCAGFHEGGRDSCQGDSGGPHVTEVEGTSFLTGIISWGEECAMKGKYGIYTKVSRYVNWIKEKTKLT
# run description: cell-based or functional assay
attribute measured: Stimulation Index, FXa generation assay, 800 nM OA antibody (fold)

# binder, numeric result
measured = [
    ("one-armed (OA) mAb11-1233 (antibody, V domains shown) VH: EVQLVESGGGLVQPGRSLRLSCAASGFKFHDYAMHWVRQVPGKGLEWVSGISWKGDIGGYVDSVKGRFTISRDNEKNSLYLQMNSLRAEDTALYYCVKSYGSGSFYNAFDSWGQGTLVTVSS VL: DIQMTQSPSTLSASVGDRVTITCRASQSISSWLAWYQQKPGKAPKFLIYKASRLDRGTPSRFSGSGSGTEFSLTISSLQPDDFATYYCLEYSSYIRTFGQGTKVEIK", 1700),
    ("one-armed (OA) mAb11-1275 (antibody, V domains shown) VH: EVQLVESGGGLVQPGRSLRLSCAASGFTFHDYAMHWVRQVPGKGLEWVSGISWKGDIGGYVDSVKGRFTISRDNEKNSLYLQMNSLRAEDTALYYCVKSYGSGSFYNAFDSWGQGTLVTVSS VL: DIQMTQSPSTLSASVGDRVTITCRASQSISSWLAWYQQKPGKAPKFLIYKASRLDRGTPSRFSGSGSGTEFSLTISSLTPDDFATYYCLEYSSYIRTFGQGTKVEIK", 1840),
]
